Provide the recorded glycan array binding signal (z-score) for the entries that follow.
SYSTEM_UNDER_TEST: Neu5Ac(a2-3)Gal(b1-4)GlcNAc(b1-2)[Neu5Ac(a2-3)Gal(b1-4)GlcNAc(b1-4)]Man(a1-3)[GlcNAc(b1-4)][Neu5Ac(a2-3)Gal(b1-4)GlcNAc(b1-4)Man(a1-6)]Man(b1-4)GlcNAc(b1-4)GlcNAc
ASSAY_TEXT: glycan array binding signal (z-score within array); higher = stronger binding
EXPERIMENTAL_CONDITIONS: glycan notation: IUPAC condensed, linker removed
The entries come from a sample that favours the strongest signals as a whole.
One number for each entry.

1. LF82 (Escherichia coli) (protein) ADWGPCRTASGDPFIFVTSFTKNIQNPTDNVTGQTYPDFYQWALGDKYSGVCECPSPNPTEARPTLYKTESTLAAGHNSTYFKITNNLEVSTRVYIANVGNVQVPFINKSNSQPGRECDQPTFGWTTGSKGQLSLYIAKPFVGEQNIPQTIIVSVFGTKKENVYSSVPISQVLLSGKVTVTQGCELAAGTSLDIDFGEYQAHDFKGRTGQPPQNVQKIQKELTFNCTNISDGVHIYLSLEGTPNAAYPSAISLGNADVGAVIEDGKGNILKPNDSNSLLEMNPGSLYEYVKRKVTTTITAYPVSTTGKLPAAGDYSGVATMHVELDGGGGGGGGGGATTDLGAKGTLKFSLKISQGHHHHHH :: 2.08

As a next step, examine the binder that follows.
INPUT: For Epa6 (Candida glabrata), Q6DTM7_CANGB (protein) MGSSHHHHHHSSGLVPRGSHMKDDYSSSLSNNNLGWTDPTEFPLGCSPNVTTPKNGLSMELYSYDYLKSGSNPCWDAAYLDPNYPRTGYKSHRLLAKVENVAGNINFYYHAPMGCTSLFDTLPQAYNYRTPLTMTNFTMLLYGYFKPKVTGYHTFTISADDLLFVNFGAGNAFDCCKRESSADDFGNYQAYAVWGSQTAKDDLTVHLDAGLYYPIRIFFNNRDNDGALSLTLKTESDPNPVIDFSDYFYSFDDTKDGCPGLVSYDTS , what is its reported glycan array binding signal (z-score)?
OUTPUT: -0.343

Hello, the source for this data is the supplement of paper PMC8728848, in case you need it.
